Target: T1, gp130 on HepG2 B6 cells (UniProt P40189 23-918, limits assumed)
T1 sequence (looked up): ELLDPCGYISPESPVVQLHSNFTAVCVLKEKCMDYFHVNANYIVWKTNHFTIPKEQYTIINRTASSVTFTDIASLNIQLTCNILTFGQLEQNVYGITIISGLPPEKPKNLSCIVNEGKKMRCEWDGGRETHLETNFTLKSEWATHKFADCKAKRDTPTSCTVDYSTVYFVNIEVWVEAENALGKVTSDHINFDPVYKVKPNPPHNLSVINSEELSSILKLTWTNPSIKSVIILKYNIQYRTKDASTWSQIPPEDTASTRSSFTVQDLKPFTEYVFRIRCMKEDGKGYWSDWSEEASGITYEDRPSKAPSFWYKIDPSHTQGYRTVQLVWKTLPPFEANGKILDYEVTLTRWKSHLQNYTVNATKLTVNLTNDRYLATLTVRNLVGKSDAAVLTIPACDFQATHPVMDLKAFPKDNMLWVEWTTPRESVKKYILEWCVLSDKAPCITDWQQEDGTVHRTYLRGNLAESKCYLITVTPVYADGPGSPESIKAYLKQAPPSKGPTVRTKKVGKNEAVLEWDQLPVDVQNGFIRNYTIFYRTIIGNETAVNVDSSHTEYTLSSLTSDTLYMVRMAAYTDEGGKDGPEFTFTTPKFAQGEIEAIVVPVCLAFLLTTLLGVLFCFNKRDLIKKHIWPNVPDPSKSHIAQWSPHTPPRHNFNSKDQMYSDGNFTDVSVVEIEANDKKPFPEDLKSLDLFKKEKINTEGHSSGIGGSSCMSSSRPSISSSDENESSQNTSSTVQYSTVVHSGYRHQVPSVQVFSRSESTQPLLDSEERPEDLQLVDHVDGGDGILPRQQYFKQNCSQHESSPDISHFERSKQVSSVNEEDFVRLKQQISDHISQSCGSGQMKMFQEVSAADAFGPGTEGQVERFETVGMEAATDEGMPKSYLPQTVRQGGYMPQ
Assay: cell-based or functional assay
# key: entry, value: sPAP HepG2 B6 assay: Expt 2 EC50
Use µg/mL as the unit, but write only the number.

Briefly, sPAP HepG2 B6 assay: Expt 2 EC50 measured for OSM-GST mutant E9A (ligand, not shown: a dimerising Fc or GST; large carriers; small tags and cut ends, Alanine mutant of m4; also called (3)E9A; 3 E9A) AAIGSCSKAYRVLLGQLQKQTDLMQDTSRLLDPYIRIQGLDVPKLREHCRERPGAFPSEETLRGLGRRGFLQTLNATLGCVLHRLADLEQRLPKAQDLERSGLNIEDLEKLQMARPNILGLRNNIYCMAQLLDNSDTAEPTKAGRGASQPPTPTPASDAFQRKLEGCRFLHGYHRFMHSVGRVFSKWGESPNRSRR : 0.0089

Lab book: sPAP HepG2 B6 assay: Expt 2 EC50 of OSM-GST mutant G15A (ligand, Alanine mutant of m4; also called (8)G15A; 8 G15A; not shown: Its linker is left out) AAIGSCSKEYRVLLAQLQKQTDLMQDTSRLLDPYIRIQGLDVPKLREHCRERPGAFPSEETLRGLGRRGFLQTLNATLGCVLHRLADLEQRLPKAQDLERSGLNIEDLEKLQMARPNILGLRNNIYCMAQLLDNSDTAEPTKAGRGASQPPTPTPASDAFQRKLEGCRFLHGYHRFMHSVGRVFSKWGESPNRSRR noted as 0.0178

We next turn to a different binder, shown below.
Summary for this binder, OSM-GST mutant S7A (ligand, not shown: a dimerising Fc or GST; large carriers; small tags and cut ends, Alanine mutant of m4; also called (1)S7A; 1 S7A) AAIGSCAKEYRVLLGQLQKQTDLMQDTSRLLDPYIRIQGLDVPKLREHCRERPGAFPSEETLRGLGRRGFLQTLNATLGCVLHRLADLEQRLPKAQDLERSGLNIEDLEKLQMARPNILGLRNNIYCMAQLLDNSDTAEPTKAGRGASQPPTPTPASDAFQRKLEGCRFLHGYHRFMHSVGRVFSKWGESPNRSRR : sPAP HepG2 B6 assay: Expt 2 EC50 is 0.0222
